Test system: IL-21 secretion from human CD4+ T cells
test.method.notes: Suppression of IL-21 secretion by activated Th17 cells (ALPHALISA)
Format: cell-based
condition.summary: human CD4+ T cells
reported.endpoint: potency in suppressing IL-21 secretion, in words

Nc1nnc(-c2csc(C(=O)c3c[nH]c4c(F)cccc34)n2)o1	most potent
Nc1nnc(-c2csc(C(=O)c3c[nH]c4cc(Cl)c(Cl)cc34)n2)o1	most potent
Nc1nnc(-c2csc(C(=O)c3c[nH]c4ccccc34)n2)o1	most potent

* * *

test.method.notes: In vivo pharmacokinetic study in Sprague-Dawley rats
condition.summary: rat, IV (2 mg/kg)
Examples of compounds with documented % of Hepatisc Blood Flow follow.
reported.endpoint: % of Hepatisc Blood Flow (%)

CCC(=O)c1csc(C(=O)c2c[nH]c3cc(F)c(F)cc23)n1	13
Cc1nc(-c2csc(C(=O)c3c[nH]c4ccccc34)n2)no1	28
Nc1nnc(-c2csc(C(=O)c3c[nH]c4ccccc34)n2)o1	45
CNC(=O)c1csc(C(=O)c2c[nH]c3ccccc23)n1	189
COC(=O)c1csc(C(=O)c2c[nH]c3ccccc23)n1	289
CCC(=O)c1csc(C(=O)c2c[nH]c3cc(F)ccc23)n1	19
Nc1nnc(-c2csc(C(=O)c3c[nH]c4c(F)cccc34)n2)o1	17
CCC(=O)c1csc(C(=O)c2c[nH]c3ccc(F)cc23)n1	84
CCC(=O)c1csc(C(=O)c2c[nH]c3ccc(Cl)cc23)n1	350
Cc1noc(-c2csc(C(=O)c3c[nH]c4ccccc34)n2)n1	103

* * *

System: human hepatocytes
test.method.notes: Hepatocyte intrinsic clearance assay, human hepatocytes
Type: in vitro ADME
condition.summary: Human Hepatocytes, well stirred liver model, fu=1
reported.endpoint: EH (%) hepatic extraction ratio

Nc1nnc(-c2csc(C(=O)c3c[nH]c4cc(Cl)c(Cl)cc34)n2)o1	8.5
CCC(=O)c1csc(C(=O)c2c[nH]c3c(F)cccc23)n1	30
Cc1noc(-c2csc(C(=O)c3c[nH]c4ccccc34)n2)n1	8
Cc1nc(-c2csc(C(=O)c3c[nH]c4ccccc34)n2)no1	18
CCC(=O)c1csc(C(=O)c2c[nH]c3ccc(Cl)cc23)n1	22
CNC(=O)c1csc(C(=O)c2c[nH]c3ccccc23)n1	65
CNC(=O)c1csc(C(=O)c2c[nH]c3ccc(F)cc23)n1	48
Nc1nnc(-c2csc(C(=O)c3c[nH]c4ccccc34)n2)s1	39
CNC(=O)c1csc(C(=O)c2c[nH]c3ccc(Cl)cc23)n1	27
CCC(=O)c1csc(C(=O)c2c[nH]c3ccc(F)cc23)n1	43

* * *

System: human hepatocytes
test.method.notes: Hepatocyte intrinsic clearance assay, human hepatocytes
Format: in vitro ADME
condition.summary: human hepatocytes
reported.endpoint: clearance / metabolic profile, in words

Nc1nnc(-c2csc(C(=O)c3c[nH]c4cc(Cl)c(Cl)cc34)n2)o1 [ARI-120]	low clearance
Nc1nnc(-c2csc(C(=O)c3c[nH]c4c(F)cccc34)n2)o1 [ARI-118]	low clearance
Cc1noc(-c2csc(C(=O)c3c[nH]c4ccccc34)n2)n1 [ARI-031]	low clearance

* * *

Test system: CYP1A1 in human HepG2 cells
test.method.notes: EROD assay (7-ethoxy-resorufin-O-deethylase), human HepG2 cells
Format: cell-based
Set-up: key: (1) active; (2) more active; (3) most active
condition.summary: human EROD assay, oxadiazole derivatives of ITE
reported.endpoint: activity group based on EC50 values, in the order of increasing activity

Cc1nnc(-c2csc(C(=O)c3c[nH]c4ccccc34)n2)o1 [ARI-060]	active
Nc1nnc(-c2csc(C(=O)c3c[nH]c4ccc(F)cc34)n2)o1 [ARI-148]	more active
Cc1noc(-c2csc(C(=O)c3c[nH]c4ccccc34)n2)n1 [ARI-031]	active
O=C(c1nc(-c2nnco2)cs1)c1c[nH]c2ccccc12 [ARI-056]	active
Nc1nnc(-c2csc(C(=O)c3c[nH]c4ccccc34)n2)o1 [ARI-083]	more active
Nc1nnc(-c2csc(C(=O)c3c[nH]c4cc(Cl)c(Cl)cc34)n2)o1 [ARI-120]	most active
Cc1nc(-c2csc(C(=O)c3c[nH]c4ccccc34)n2)no1 [ARI-030]	active
Nc1nnc(-c2csc(C(=O)c3c[nH]c4c(F)cccc34)n2)o1 [ARI-118]	most active
NCc1nnc(-c2csc(C(=O)c3c[nH]c4c(F)cccc34)n2)o1 [ARI-145]	more active
Nc1nnc(-c2csc(C(=O)c3c[nH]c4ccccc34)n2)s1 [ARI-090]	more active
